Below is a list of entries, each paired with its recorded IC50 value.
Test system: HCC1954
TEST NAME: Viability assay, BRCA1 WT cell line HCC1954
Format: cell-based
SETUP CONDITIONS: Homo sapiens, HCC1954, viability, read-out: HCC1954 rel IC50
Text: Table 1 also indicates IC50 values in a viability assay for a non-isogenic pair of BRCA1 mutant (column 5-MDA-MB-436) and BRCA1 WT (column 6—HCC1954) cell lines. These values indicate the effect of treatment with compound on cell survival.

Prompt: Look up HCC1954 data: IC50 of C=C(C)c1c(F)cccc1-c1nc(C)c2c(n1)n(Cc1ccc(-c3nc(Cl)cn3C)cc1)c(=N)n2C [Example A-30] , then report it.
Completion: 0.25 to 10 µM

Prompt: Print HCC1954 IC50 for [2H]C([2H])([2H])Oc1ncnc(C2CC2)c1-c1ncc2c(n1)n(Cc1ccc(-c3nc(C(F)(F)F)cn3C(C)C)cc1)c(=N)n2CC(F)(F)F [Example T-135] .
Completion: ≥ 10 µM

Prompt: Report its IC50 with HCC1954 as the test system: Cc1cc(Cn2c(=N)n(C)c3cnc(-c4ccccc4C(F)(F)F)nc32)ccc1-c1nc(C(F)(F)F)c[nH]1 [Example T-092]
Completion: 0.25 to 10 µM

Prompt: Fill: IC50 (HCC1954) for this molecule CCn1cc(C(F)(F)F)nc1-c1ccc([C@@H](C)n2c(=N)n(CC(F)(F)F)c3cnc(-c4c(OC)ncnc4C4CC4)nc32)cc1 [Example T-106]
Completion: ≥ 10 µM

Prompt: Name the value of IC50 reported for Cn1cc(C(F)(F)F)nc1-c1ccc(Cn2c(=N)n(C)c3cnc(-c4cccnc4C#N)nc32)cc1 [Example T-050] when tested on HCC1954.
Completion: ≥ 10 µM

Prompt: Determine reported IC50 for Cc1nc(-c2ccccc2)nc2c1n(C)c(=N)n2Cc1ccc(-c2nc(C(F)(F)F)cn2C)cc1 (single isomer, unassigned) [Example A-15b] ; test system: HCC1954.
Completion: 0.25 to 10 µM

Prompt: Please indicate recorded IC50 of Cn1cc(C(F)(F)F)nc1-c1ccc(Cn2c(=N)n(C)c3cnc(-c4c(C(F)(F)F)nn(C)c4C#N)nc32)cc1 [Example T-072] measured with HCC1954.
Completion: 0.25 to 10 µM

###

Here's what we have: pIC50 numbers for USP1-UAF1 (Homo sapiens, UniProt O94782).
pIC50: −log10 of the molar value.

[[record]]
compound = "COc1ncnc(OC)c1-c1ncc2c(n1)n(Cc1ccc(-c3nc(C(F)(F)F)cn3C)cc1)c(=N)n2CC(F)(F)F [Example T-110]"
observation_type = "pIC50"
recorded_result = "7.00 to 7.52"

[[record]]
compound = "CN(C)c1ncccc1-c1ncc2c(n1)n(Cc1ccc(-c3nc(C(F)(F)F)cn3C)cc1)c(=N)n2C [Example T-034]"
observation_type = "pIC50"
recorded_result = "5.00 to 7.00"

[[record]]
compound = "CC(C)c1ccccc1-c1nc(Cl)c2c(n1)n(Cc1ccc(-c3nc(C(F)(F)F)cn3C)cc1)c(=N)n2C (single isomer, unassigned) [Example A-22a]"
observation_type = "pIC50"
recorded_result = "> 7.52"


Prompt: Supply measured pIC50 of Cc1cnn(C)c1-c1ncc2c(n1)n(Cc1ccc(-c3nc(C(F)(F)F)cn3C)cc1)c(=N)n2C [Example T-012] in your reply.
Completion: 5.00 to 7.00

Prompt: Find the measured pIC50 of Cn1cc(C(F)(F)F)nc1-c1ccc(Cn2c(=N)n(CC(F)(F)F)c3cnc(-c4c(OC(F)(F)F)ccnc4C4CC4)nc32)cc1 [Example T-112] and report it.
Completion: 7.00 to 7.52

Prompt: Consider the compound [2H]C([2H])([2H])Oc1ncnc(C2CC2)c1-c1ncc2c(n1)n(Cc1ccc(-c3nc(C(F)(F)F)cn3C(C)C)cc1)c(=N)n2CC(F)(F)F [Example T-135] . State its measured pIC50.
Completion: 7.00 to 7.52

Prompt: Hello, please tell me recorded pIC50 for this one: CC(C)c1cc(F)ccc1-c1ncc2c(n1)n(Cc1ccc(-c3nc(C(F)(F)F)cn3C)cc1)c(=N)n2C [Example B-10]
Completion: > 7.52

Prompt: Identify pIC50 associated with the compound Cc1nc(-c2ccccc2)nc2c1n(C)c(=N)n2Cc1ccc(-c2nc(C(F)(F)F)cn2C)cc1 (single isomer, unassigned) [Example A-15b]
Completion: 5.00 to 7.00

Prompt: Name the recorded pIC50 of the item COc1ncnc(C2CC2)c1-c1ncc2c(n1)n(Cc1cc(C)c(-c3nc(C(F)(F)F)cn3C)cc1C)c(=N)n2C [Example T-026] in your answer.
Completion: 5.00 to 7.00

Prompt: Query pIC50 for Cc1nc(-c2ccccc2Cl)nc2c1n(C)c(=N)n2Cc1ccc(-c2nc(C(F)(F)F)cn2C)cc1 (single isomer, unassigned) [Example A-15a]
Completion: 7.00 to 7.52

Prompt: Check the records and state pIC50 for COc1ncnc(C2CC2)c1-c1ncc2c(n1)n(Cc1cc(F)c(-n3nc(C(F)(F)F)cc3OC)c(F)c1)c(=N)n2CC(F)(F)F [Example T-127]
Completion: 7.00 to 7.52

Prompt: Give me measured pIC50, please, for this compound: Cc1nc(-c2cccc(F)c2C(C)C)nc2c1n(C)c(=N)n2Cc1ccc(-c2nc(Cl)cn2C)cc1 [Example A-28]
Completion: > 7.52

Prompt: Supply measured pIC50 of COc1ncnc(C2CC2)c1-c1ncc2c(n1)n([C@@H](C)c1ccc(-c3nc(C(F)(F)F)cn3C)cc1)c(=N)n2C [Example T-142] in your reply.
Completion: 5.00 to 7.00

Prompt: Please report the measured pIC50 for Cn1cc(C(F)(F)F)nc1-c1ccc(Cn2c(=N)n(C)c3cnc(-c4cccnc4C(F)(F)F)nc32)cc1 [Example T-025]
Completion: 5.00 to 7.00

Prompt: For the compound CC(C)c1ccccc1-c1ncc2c(n1)n(C(C)C1CCN(c3nc(Cl)cn3C)CC1)c(=N)n2C (single isomer, unassigned) [Example A-26c] , give its reported pIC50.
Completion: 5.00 to 7.00

###

Tested on: HCC1954
TEST NAME: Viability assay, BRCA1 WT cell line HCC1954
Format: cell-based
SETUP CONDITIONS: Homo sapiens, HCC1954, viability, read-out: HCC1954 rel IC50
OBSERVATION TYPE: IC50

Prompt: Respond only with IC50 recorded for COc1nc(-c2ccccc2C(C)C)nc2c1n(C)c(=N)n2Cc1ccc(-c2nc(C(F)(F)F)cn2C)cc1 [Example A-20]
Completion: 0.25 to 10 µM

###

Test system: HCC1954
TEST NAME: Viability assay, BRCA1 WT cell line HCC1954
Format: cell-based
SETUP CONDITIONS: Homo sapiens, HCC1954, viability, read-out: HCC1954 rel IC50
pIC50: −log10 of the molar value.
Listing of entries alongside the reported pIC50.

Illustrative cases are given below, each with its answer.
[[record]]
compound = "Cn1cc(C(F)(F)F)nc1-c1ccc(Cn2c(=N)n(C)c3cnc(-c4cccnc4C4(C#N)CC4)nc32)cc1 [Example T-041]"
target_or_test_system = "HCC1954"
observation_type = "pIC50"
recorded_result = "≤ 5.00"

[[record]]
compound = "CNC(=O)c1nc(-c2ccccc2C(C)C)nc2c1n(C)c(=N)n2Cc1ccc(-c2nc(C(F)(F)F)cn2C)cc1 [Example A-39]"
target_or_test_system = "HCC1954"
observation_type = "pIC50"
recorded_result = "≤ 5.00"

[[record]]
compound = "Cc1nc(-c2cc(F)ccc2C(C)C)nc2c1n(C)c(=N)n2Cc1ccc(-c2nc(Cl)cn2C)cc1 [Example A-27]"
target_or_test_system = "HCC1954"
observation_type = "pIC50"
recorded_result = "5.00 to 6.60"

[[record]]
compound = "COCCn1c(=N)n(Cc2ccc(-c3nc(C(F)(F)F)cn3C)cc2)c2nc(-c3c(OC)ncnc3C3CC3)ncc21 [Example T-134]"
target_or_test_system = "HCC1954"
observation_type = "pIC50"
recorded_result = "≤ 5.00"

[[record]]
compound = "COc1ncnc(C2CC2)c1-c1ncc2c(n1)n([C@H](C)c1ccc(-c3nc(C(F)(F)F)cn3C)cc1)c(=N)n2C [Example T-131]"
target_or_test_system = "HCC1954"
observation_type = "pIC50"
recorded_result = "≤ 5.00"

[[record]]
compound = "Cc1nc(-c2ccccc2Cl)nc2c1n(C)c(=N)n2Cc1ccc(-c2nc(C(F)(F)F)cn2C)cc1 (single isomer, unassigned) [Example A-15a]"
target_or_test_system = "HCC1954"
observation_type = "pIC50"
recorded_result = "≤ 5.00"

[[record]]
compound = "CC(C)c1ccccc1-c1nc(C(=O)N(C)C)c2c(n1)n(Cc1ccc(-c3nc(C(F)(F)F)cn3C)cc1)c(=N)n2C [Example A-40]"
target_or_test_system = "HCC1954"
observation_type = "pIC50"
recorded_result = "≤ 5.00"

[[record]]
compound = "COc1ncnc(C(F)(F)F)c1-c1ncc2c(n1)n(Cc1ccc(-c3nc(C(F)(F)F)cn3C)cc1)c(=N)n2C [Example T-038]"
target_or_test_system = "HCC1954"
observation_type = "pIC50"
recorded_result = "≤ 5.00"


Prompt: Name the value of pIC50 reported for CC(C)c1ccccc1-c1ncc2c(n1)n(Cc1ccc(-c3ncc(C(F)(F)F)n3C)cc1)c(=N)n2C [Example A-1] when tested on HCC1954.
Completion: 5.00 to 6.60

Prompt: Recall the reported pIC50 of COc1ncnc(C2CC2)c1-c1ncc2c(n1)n(Cc1cc(-c3nc(C(F)(F)F)cn3C)cs1)c(=N)n2C [Example T-014] on HCC1954 and write it down.
Completion: ≤ 5.00

Prompt: Give the observed pIC50 of CC(C)c1ccc(F)cc1-c1ncc2c(n1)n(Cc1ccc(-c3nc(C(F)(F)F)cn3C)cc1)c(=N)n2C [Example B-11] for HCC1954.
Completion: 5.00 to 6.60

Prompt: Provide pIC50, system HCC1954, entry COc1ncnc(C2CC2)c1-c1ncc2c(n1)n(Cc1ccc(-c3nc(C(F)(F)F)cn3C)c(C)c1)c(=N)n2CC(F)(F)F [Example T-107]
Completion: ≤ 5.00

Prompt: System HCC1954. Read-out pIC50. Item COc1ncnc(C2(C)CC2)c1-c1ncc2c(n1)n(Cc1ccc(-c3nc(C(F)(F)F)cn3C)cc1)c(=N)n2CC(F)(F)F [Example T-137] . Report value.
Completion: ≤ 5.00

Prompt: Return reported pIC50 for target or system HCC1954, item COc1ncnc(C2CC2(F)F)c1-c1ncc2c(n1)n(Cc1ccc(-c3nc(C(F)(F)F)cn3C)cc1)c(=N)n2C (stereo not drawn) [Example T-111] .
Completion: ≤ 5.00

Prompt: Print HCC1954 pIC50 for CC(C)c1ccccc1-c1ncc2c(n1)n(Cc1ccc(-c3nc(C(F)(F)F)c(Br)n3C)cc1)c(=N)n2C [Example T-059] .
Completion: 5.00 to 6.60

Prompt: # lookup: HCC1954 pIC50, key = CCOc1cc(C(F)(F)F)nn1-c1ccc(Cn2c(=N)n(C)c3cnc(-c4ccccc4C(F)(F)F)nc32)cn1 [Example T-091]
Completion: ≤ 5.00
